Test Method Notes: gradient 5% acetonitrile 3 min, to 50% in 2 min, to 85% in 15 min, held 3 min, 100 µL/min
Test Parameters: column: Zorbax Extend-C18 2.1 x 50 mm; eluents: water / acetonitrile, 0.1% formic acid
Reported Endpoint: RP-LC retention time (s)

>  <Compound>
CC(C)Cn1cc(CCNS(=O)(=O)c2ccc(C(C)C)cc2)c2cccnc21

>  <RP-LC retention time / s>
1110

$$$$
>  <Compound>
CC(Oc1ccccc1Cl)C(=O)NCCn1cnc(-c2ccccc2)cc1=O (stereo not given)

>  <RP-LC retention time / s>
790

$$$$
>  <Compound>
Cc1nc(-c2ccc(C(=O)N3CCCc4ccccc43)cc2)no1

>  <RP-LC retention time / s>
929

$$$$
>  <Compound>
CCn1ccc2sc(C)c(C(=O)NCc3ccc(Br)cc3)c2c1=O

>  <RP-LC retention time / s>
911

$$$$
>  <Compound>
CCc1ccccc1N1C(=O)CN(S(=O)(=O)CC)CC1(C)C(=O)NC1CCCCCC1 (stereo not given)

>  <RP-LC retention time / s>
957

$$$$
>  <Compound>
COc1ccccc1CNC(=O)Cn1cncc(C)c1=O

>  <RP-LC retention time / s>
618

$$$$
>  <Compound>
CC(C)Nc1nc(=O)[nH]c2ccccc12

>  <RP-LC retention time / s>
550

$$$$
>  <Compound>
COc1ccc(-c2cc(NCCc3ccc(OC)c(OC)c3)ncn2)cc1

>  <RP-LC retention time / s>
563

$$$$

[P] CCN(CCCNS(=O)(=O)c1ccc2c(c1)CCCC(=O)N2)c1ccccc1
[Q] COc1ccc(OCc2nc(CCN(C)C(=O)CC3CCCC3)no2)cc1
Which of the two items, P and Q , has the greater recorded RP-LC retention time? Reply with the label of the item you choose.
Q
(Q: 919 s, P: 618 s)
